# tested target: integrin α5β1 (Homo sapiens, UniProt P05556+P08648)
# Construct: Human erythroleukemia K562 cells were purchased from ATCC; host or cells: K562
# Sequence (P08648 42-894 limits assumed): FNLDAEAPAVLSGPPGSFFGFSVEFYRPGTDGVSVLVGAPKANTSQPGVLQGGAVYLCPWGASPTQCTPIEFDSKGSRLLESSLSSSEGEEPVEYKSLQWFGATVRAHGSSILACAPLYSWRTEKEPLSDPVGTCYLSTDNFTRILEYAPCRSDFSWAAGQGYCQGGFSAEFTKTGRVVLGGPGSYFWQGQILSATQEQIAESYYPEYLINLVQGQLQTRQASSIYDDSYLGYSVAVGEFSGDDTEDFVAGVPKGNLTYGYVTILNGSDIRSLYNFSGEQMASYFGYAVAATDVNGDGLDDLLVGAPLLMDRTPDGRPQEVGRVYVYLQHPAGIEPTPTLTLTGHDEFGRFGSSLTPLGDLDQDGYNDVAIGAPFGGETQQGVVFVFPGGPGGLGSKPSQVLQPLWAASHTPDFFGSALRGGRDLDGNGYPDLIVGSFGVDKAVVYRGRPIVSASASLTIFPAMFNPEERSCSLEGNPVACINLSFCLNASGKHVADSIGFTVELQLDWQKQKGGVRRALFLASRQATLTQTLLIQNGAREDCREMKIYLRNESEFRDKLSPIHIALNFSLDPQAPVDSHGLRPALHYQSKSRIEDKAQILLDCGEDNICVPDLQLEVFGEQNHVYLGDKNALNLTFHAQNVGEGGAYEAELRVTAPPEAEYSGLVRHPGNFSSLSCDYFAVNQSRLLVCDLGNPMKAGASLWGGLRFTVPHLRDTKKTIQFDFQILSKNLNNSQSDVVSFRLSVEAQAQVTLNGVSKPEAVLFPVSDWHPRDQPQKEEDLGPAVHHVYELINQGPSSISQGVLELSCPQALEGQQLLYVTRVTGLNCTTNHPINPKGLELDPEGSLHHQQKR
# Sequence (P08648 895-1049 partner limits assumed): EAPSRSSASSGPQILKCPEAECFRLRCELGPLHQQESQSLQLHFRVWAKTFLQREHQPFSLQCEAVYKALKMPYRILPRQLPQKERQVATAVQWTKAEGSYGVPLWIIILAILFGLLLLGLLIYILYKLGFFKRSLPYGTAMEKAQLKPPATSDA
# Sequence (P05556 21-798): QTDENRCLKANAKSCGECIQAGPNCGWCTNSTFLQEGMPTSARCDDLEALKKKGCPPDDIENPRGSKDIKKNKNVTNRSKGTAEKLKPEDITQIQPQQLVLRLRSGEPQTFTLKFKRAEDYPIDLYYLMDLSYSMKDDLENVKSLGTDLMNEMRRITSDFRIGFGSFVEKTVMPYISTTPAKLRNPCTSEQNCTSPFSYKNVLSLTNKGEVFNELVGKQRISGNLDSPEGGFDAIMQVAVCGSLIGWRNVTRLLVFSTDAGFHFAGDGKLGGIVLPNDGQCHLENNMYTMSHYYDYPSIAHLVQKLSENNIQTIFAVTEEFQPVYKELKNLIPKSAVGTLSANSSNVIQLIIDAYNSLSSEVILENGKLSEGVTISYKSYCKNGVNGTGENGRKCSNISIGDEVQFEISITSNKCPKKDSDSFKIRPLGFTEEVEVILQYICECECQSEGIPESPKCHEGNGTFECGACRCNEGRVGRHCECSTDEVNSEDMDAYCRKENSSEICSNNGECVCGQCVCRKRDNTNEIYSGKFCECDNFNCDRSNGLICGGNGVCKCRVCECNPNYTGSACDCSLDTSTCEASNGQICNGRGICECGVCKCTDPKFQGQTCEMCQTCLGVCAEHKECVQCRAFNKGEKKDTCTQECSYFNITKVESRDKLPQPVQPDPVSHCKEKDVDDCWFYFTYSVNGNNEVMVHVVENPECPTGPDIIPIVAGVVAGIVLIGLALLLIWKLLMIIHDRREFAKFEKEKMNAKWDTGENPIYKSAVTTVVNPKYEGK
# Format: cell-based
# condition notes: read-out: IC50 α5β1
reported property: pIC50
One number for each entry, as −log10 of the molar value.

Consider the substance PGP: rhodostomin variant having a RGD motif variant ^48PRGDGP^53, SEQ ID NO: 42 and give its measured pIC50.
5.40

---

# tested target: integrin αIIbβ3 (Homo sapiens, UniProt P05106+P08514)
# Construct: host or cells: CHO (CHO-αIIbβ3)
# Type: cell-based
# condition notes: read-out: IC50 αIIbβ3
reported property: pIC50
Answers are plain numbers, as −log10 of the molar value.

Consider the substance PGP: rhodostomin variant having a RGD motif variant ^48PRGDGP^53, SEQ ID NO: 42 and give its measured pIC50.
6.30

---

Could you please report measured C-terminal telopeptide of COL(1)α1 chain for the items listed next?
# System: ovariectomized (OVX) mice
# Parameters: species or system ICR mice
# condition notes: mouse, in vivo, po, 1.5 mg/kg
Give bare numbers, in ng/mL.

Here are 3 substances together with their reported answers.
substance | C-terminal telopeptide of COL(1)α1 chain (ng/mL)
PRLDDL: rhodostomin variant with RGD motif ^48Pro-Arg-Leu-Asp-Asp-Leu^53, SEQ ID NO: 37 | 410
RID: rhodostomin variant with RGD motif ^48Pro-Arg-Ile-Asp-Met-Pro^53, SEQ ID NO: 39 | 391
RD: rhodostomin variant having a RGD motif variant ^48PRLDMP^53, SEQ ID NO: 36 | 391

Consider the substance ARGDDL: rhodostomin variant with RGD motif ^48Ala-Arg-Gly-Asp-Asp-Leu^53, SEQ ID NO: 32 and give its measured C-terminal telopeptide of COL(1)α1 chain.
389

---

# tested target: integrin αIIbβ3 (Homo sapiens, UniProt P05106+P08514)
# Construct: host or cells: CHO (CHO-αIIbβ3)
# Format: cell-based
# condition notes: read-out: IC50 αllbβ3/Fg
reported property: IC50 (µM)
One number for each entry, in µM.

Consider the substance PGP: rhodostomin variant having a RGD motif variant ^48PRGDGP^53, SEQ ID NO: 42 and give its measured IC50.
2.59

The measured values listed here are drawn from patent US8183201B2.
